Tested on: P. falciparum NF54-pfs16-GFP early (I-III) stage gametocytes
Measurement notes: relative % inhibition of viable gametocyte number; higher = more gametocytocidal
Assay conditions: 5 µM; stage: early (I-III) gametocyte; incubation 72 h
Please go through the items and note down their relative % inhibition.
Numbers only, in %.

Provide relative % inhibition values for the following items, in order.
1. Cc1ccccc1OCCSc1nc2ccc(NC(=O)c3ccccc3)cc2s1
2. Cc1ccnc(NC(c2cccc(OCc3ccccc3)c2)c2ccc3cccnc3c2O)c1 (stereo not given)
3. c1ccc2c(NCCc3c[nH]c4ccccc34)c3ccccc3nc2c1
4. OC(Cn1nnc2ccccc21)Cn1c2ccc(Br)cc2c2cc(Br)ccc21 (stereo not given)
5. CNCCCNc1ccnc2cc(Cl)ccc12
6. Oc1ccc2ccccc2c1CNc1nc2ccccc2[nH]1

### Response
1: 20.2; 2: 96.4; 3: 89.1; 4: 83.6; 5: 106; 6: 66.5

Provide relative % inhibition values for the following items, in order.
1. CCOC(=O)C1=CN(C)C=C(C(=O)OCC)C1c1cc(Br)c(OCC)c(OC)c1
2. O=C(Nc1ccc(-c2nc3cc(NC(=O)c4ccc(Cl)cc4)ccc3[nH]2)cc1)c1ccc(Cl)cc1

### Response
1: 89.7; 2: 48.5

Provide relative % inhibition values for the following items, in order.
1. COc1ccc(C)c2sc(N(Cc3cccnc3)C(=O)c3ccc(C#N)cc3)nc12
2. O=C(NCc1ccco1)C1CCN(S(=O)(=O)c2ccc(Cl)cc2)CC1

### Response
1. 35.9
2. 3.24

Provide relative % inhibition values for the following items, in order.
1. COc1cc(C(=O)ON=C(N)Cc2cccc3ccccc23)cc(OC)c1OC
2. Cc1cc(NC(=O)c2ccc(-c3ccccc3)cc2)no1
3. Cc1[nH]c(-c2ccc(F)cc2)cc1C(=O)NC1CCN(Cc2ccccc2)CC1
4. Oc1ccccc1CN1CCC2(CCCN(Cc3ccccc3F)C2)C1 (stereo not given)
5. CCOC(=O)c1cn(CC)c2cc(N3CCCCC3)c(F)cc2c1=O

### Response
74.1
24.9
75.3
93.8
17

###

Please go through the items and note down their relative % inhibition.
Test system: P. falciparum NF54-pfs16-GFP early (I-III) stage gametocytes
Measurement notes: relative % inhibition of viable gametocyte number; higher = more gametocytocidal
Assay conditions: 0.5 µM; stage: early (I-III) gametocyte; incubation 72 h
Numbers only, in %.

Provide relative % inhibition values for the following items, in order.
1. COc1ccc(C(=O)Nc2nonc2-c2ccc(OC)c(OC)c2)cc1Cl
2. CC(=O)Nc1nnc(SCc2c(C)cc(C(C)(C)C)cc2C)s1
3. COc1ccccc1CNC(=O)CCn1c(=O)[nH]c2ccsc2c1=O

### Response
1: 33.4; 2: 13.5; 3: 16.9

Provide relative % inhibition values for the following items, in order.
1. COc1cc(-c2nc(-c3ccccc3)c(-c3ccccc3)[nH]2)cc(OC)c1O
2. Cc1ccc(OCCCCCCNCCO)c(C)c1
3. COc1ccc(-c2cn3c(C(=O)Nc4ccccc4Cl)c(-c4ccccc4)c4c3n2CCCC4)cc1
4. CCCCCCOC(=O)C1=C(C)NC(=O)NC1c1ccccc1F (configuration not stated)

### Response
15.2
2.04
10.5
9.08

Provide relative % inhibition values for the following items, in order.
1. COc1ccc(C2=C(c3ccc(OC)cc3)C3(c4ccccc4)C(=O)C2(c2ccccc2)C2C(=O)N(c4ccc(C)cc4)C(=O)C23)cc1 (configuration not stated)
2. Cn1c(=O)c2cc(C(=O)NCCCN3CCCCCC3)sc2c2ccccc21
3. Cc1cc(Nc2ccc(OCc3ccccc3)cc2)nc2cc(O)ccc12
4. CCOc1c(Cl)cc(CNCC(O)c2ccccc2)cc1OC (configuration not stated)

### Response
60.3
13.6
12.6
-19.6

Provide relative % inhibition values for the following items, in order.
1. O=C(NC1CCCCC1)C(c1cccs1)N(CCc1ccccc1)C(=O)c1ccco1 (configuration not stated)
2. CCOC(=O)c1cn(CC)c2cc(N(C)CCc3ccc(OC)c(OC)c3)c(F)cc2c1=O
3. N=c1n(CCN2CCCCC2)c2ccccc2n1CC(O)c1cccc(Br)c1 (configuration not stated)
4. CN1CCN(c2ncnc3c2[nH]c2ccc(Cl)cc23)CC1
5. CN(C)CCNc1cc(-c2ccccc2)nc2ccccc12
6. O=C1c2ccc3c4c(ccc(c24)C(=O)N1CCCCO)C(=O)N(CCCCO)C3=O
7. COc1ccc(NC(=O)C2c3ccccc3C(=O)N(CC(C)C)C2c2cccs2)cc1 (configuration not stated)

### Response
1: 0.574; 2: 38.6; 3: 6.75; 4: 9.76; 5: -7.32; 6: -9.07; 7: 52.4
